Provide the recorded pEC50 for the entries that follow.
system_name: BRAF (Homo sapiens, UniProt P15056)
Sequence (P15056 whole entry): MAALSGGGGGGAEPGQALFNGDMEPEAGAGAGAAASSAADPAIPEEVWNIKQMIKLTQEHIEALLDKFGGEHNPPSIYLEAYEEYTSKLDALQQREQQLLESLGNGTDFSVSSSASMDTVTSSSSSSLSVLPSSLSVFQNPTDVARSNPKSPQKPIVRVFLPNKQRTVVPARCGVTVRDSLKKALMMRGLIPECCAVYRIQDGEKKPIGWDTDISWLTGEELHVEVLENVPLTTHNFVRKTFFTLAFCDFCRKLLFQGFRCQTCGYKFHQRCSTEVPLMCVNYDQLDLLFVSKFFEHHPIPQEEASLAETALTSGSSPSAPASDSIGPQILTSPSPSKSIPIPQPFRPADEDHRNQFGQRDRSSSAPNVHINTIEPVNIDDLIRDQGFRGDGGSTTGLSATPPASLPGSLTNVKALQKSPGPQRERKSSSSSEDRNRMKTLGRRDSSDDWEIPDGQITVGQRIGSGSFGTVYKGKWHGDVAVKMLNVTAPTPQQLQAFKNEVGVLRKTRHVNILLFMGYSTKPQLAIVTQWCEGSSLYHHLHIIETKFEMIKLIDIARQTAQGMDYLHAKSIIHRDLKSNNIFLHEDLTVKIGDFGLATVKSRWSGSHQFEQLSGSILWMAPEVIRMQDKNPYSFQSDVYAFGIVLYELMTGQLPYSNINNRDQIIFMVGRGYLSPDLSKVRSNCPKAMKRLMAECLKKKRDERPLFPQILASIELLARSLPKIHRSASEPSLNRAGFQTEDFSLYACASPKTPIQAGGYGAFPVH
procedure_text: SelectScreen kinase specificity survey
reported_conditions: estimated, abridged dose response curve, read-out: Kinase inhibitory activity EC50
Remember, pEC50 is on a log scale: it is -log10 of the molar concentration.

Fill in: pEC50 of CN(C)CCCNc1ccc2ncn3c4ccc5[nH]ncc5c4c(=O)c1c23 is ___
5.84

Try this compound next: CCN(CC)CCNc1ccc2ncn3c4ccc(O)cc4c(=O)c1c23 [Symadex, reference compound]
5.35

----------
system_name: MLCK (Homo sapiens, UniProt Q9H1R3)
procedure_text: Kinase EC50 (10 pt curve or estimate, ATP Kmapp)
reported_conditions: from 10 pt curve or estimate based on 1 μm inhibition assay at ATP Kmapp
Criterion: EC50 strictly less than 20 nM. Met: true. Not met: false.

Take the molecule CN(C)CCCNc1ccc2ncn3c4ccc5[nH]ncc5c4c(=O)c1c23 and say whether its EC50 is less than 20 nM.
false

Next entry: CCN(CC)CCCNc1ccc2ncn3c4ccc5[nH]ncc5c4c(=O)c1c23
true

Entry CCN(CC)CCNc1ccc2ncn3c4ccc(O)cc4c(=O)c1c23 [Symadex, reference compound] please
false

Do the same for O=c1c2c(NCCCN3CCOCC3)ccc3ncn(c4ccc5[nH]ncc5c14)c32 please
false

Okay, and CN1CCN(CCCNc2ccc3ncn4c5ccc6[nH]ncc6c5c(=O)c2c34)CC1 ?
true

CC(CCN1CCOCC1)Nc1ccc2ncn3c4ccc5[nH]ncc5c4c(=O)c1c23 (stereo not shown) ?
false

Would you kindly repeat that for CN(C)CCNc1ccc2ncn3c4ccc5[nH]ncc5c4c(=O)c1c23 ?
true
